Consider the following molecules; for each one, report its composite z-score.
system: glycogen synthase kinase-3 (GSK3A per assay name; protocol says GSK3B); experiment: GSK3 binders on small-molecule microarrays, primary screen, biochemical, small-molecule microarray, 635 nm fluorescence, GSK3A (AID 1103); settings: small-molecule microarray binding, fluorescence 635 nm; higher = more signal; note: the record names both GSK3A and GSK3B
One number for each entry.

These solved cases illustrate the format of a correct answer.
structuresmiles=COC(=O)[C@@]1(Cc2ccc(OC)cc2)[C@H]2c3cc(C(=O)N(C)C)n(Cc4ccc(S(C)(=O)=O)cc4)c3C[C@H]2CN1C(=O)c1ccccc1 measuredquantity="composite z-score" quantitativeresult=0.904
structuresmiles=COCCOC(=O)N1C(=O)[C@@]2(c3cc(C#CCC(C(=O)OC)C(=O)OC)ccc31)[C@H](C(=O)N1CCN(c3ncccn3)CC1)[C@H]1C(=O)O[C@H](c3ccccc3)[C@H](c3ccccc3)N1[C@@H]2c1ccccc1OCCO measuredquantity="composite z-score" quantitativeresult=1.3
structuresmiles=CC(C)(C)OC(=O)CC[C@]1(C(=O)N2CCOCC2)N=C(c2ccc(OCCCO)cc2)O[C@H]1c1ccccc1N=[N+]=[N-] measuredquantity="composite z-score" quantitativeresult=1.2
structuresmiles=C=CCNC(=O)[C@H]1[C@@H]2C(=O)O[C@@H](c3ccccc3)[C@@H](c3ccccc3)N2[C@@H](c2ccccc2OCCO)[C@]12C(=O)Nc1ccc(C#CCC(C(=O)OC)C(=O)OC)cc12 measuredquantity="composite z-score" quantitativeresult=1.33

Given `COCCOC(=O)N1C(=O)[C@@]2(c3cc(C#CCCO)ccc31)[C@H](C(N)=O)[C@H]1C(=O)O[C@H](c3ccccc3)[C@H](c3ccccc3)N1[C@@H]2c1ccc(O)cc1` , state its recorded composite z-score.
-0.124

====

assay: small-molecule microarray binders of probe aXIP, primary screen, biochemical, NeuroSMM set, 635/667 nm fluorescence (AID 1119); settings: higher = more signal, called active from +8 up or from −8 down;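 note: probe is the protein aXip251-270 applied at 1 µg/mL to compound-printed slides; binding of probe to printed compounds measured as 667 nm fluorescence plus signal to noise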
measuredQuantity: composite Z-score
Give bare numbers.

Provide composite Z-score values for the following items, in order.
1. CCCC[C@@H]1C[C@H]1[C@@H](NC(=O)c1ccccc1)c1ccc(C(=O)OC)cc1
2. COc1ccc([Si](C)(C)[C@H]2[C@H](CC(=O)N3Cc4ccccc4C[C@H]3CO)O[C@@]3(C(=O)N(Cc4cccc(N5CCC5=O)c4)c4ccccc43)[C@@H]2C)cc1
3. COc1ccc(CCNC(=O)[C@@H]2c3ccccc3C(=O)N(Cc3ccccc3Cl)[C@H]2c2ccc(CO)cc2)cc1
4. C[N+](C)(C)CCCCNC(=O)[C@@H]1C[C@@H]2C(=O)N[C@@H](Cc3ccccc3)C(=O)N2[C@@H]1c1cccc(OCCO)c1
5. COCCCNC(=O)[C@@H]1c2ccccc2C(=O)N(Cc2ccccc2Cl)[C@H]1c1ccc(CO)cc1
6. Cc1ccc(S[C@]2(C(=O)NCCCN(C)C)CC(=O)N(Cc3ccccc3C(F)(F)F)[C@@H]2c2ccc(CO)cc2)cc1

[0.953, 0.923, -0.145, 0.668, -0.129, -0.676]

Give one value of composite Z-score per listed compound.
1. COc1ccc(C#Cc2ccc3c(c2)[C@]2(C(=O)N3)[C@H](C(=O)Nc3nc4ccccc4s3)[C@H]3C(=O)O[C@H](c4ccccc4)[C@H](c4ccccc4)N3[C@@H]2c2ccc(O)cc2)cc1
2. NC(=O)[C@@H]1[C@H]2C(=O)O[C@H](c3ccccc3)[C@H](c3ccccc3)N2[C@H](c2ccc(O)cc2)[C@@]12C(=O)Nc1ccccc12
3. O=C1C2C=CC(C(O)CCc3ccccc3)N(Nc3ccccc3F)C2C(=O)N1c1ccccc1 (stereo not given)
4. C=C[C@H](CO)NS(=O)(=O)c1ccc(Br)cc1

[0.257, -0.622, -0.585, 0.058]

Give measured composite Z-score for every item shown.
1. O=C1C[C@]2(c3ccc([N+](=O)[O-])cc3)C(=O)N(CC(F)(F)F)c3cc(CO)ccc3[C@H]2N1C1CCCCC1
2. CO[C@H]1O[C@H](CO)[C@@H](OC(=O)Nc2ccc(C(F)(F)F)cc2)[C@H](OC(=O)Nc2ccc3c(c2)OCO3)[C@@H]1OC(=O)Nc1ccc2c(c1)OCO2
3. C=C(COC)/C(=C/C[C@@H](OC(C)=O)c1ccc(OCCO)cc1)c1cnc2ccccc2c1
4. CC(C)C[C@@H]1NC(=O)[C@@H]2C[C@H](C(=O)O)[C@H](c3cccc(OCCO)c3)N2C1=O
5. Cc1ccc(S[C@]2(C(=O)NCCCN(C)C)CC(=O)N(Cc3cc(C(F)(F)F)cc(C(F)(F)F)c3)[C@@H]2c2ccc(CO)cc2I)cc1

-0.0774
-0.279
-0.225
-0.303
-0.86
